Test: ATG_M_32_CIS: Attagene CIS-FACTORIAL HepG2 Assay for M32 Transcription Factor (Internal Marker) (AID 2282949);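 note: background control marker of the multiplexed CIS panel rather than a real target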
Conditions: HepG2 Attagene cis-factorial M32 reporter, mRNA; actives raise or lower the signal
The source made the active and inactive calls. Rule for the calls: active = hit-call score of the fitted dose curve at least 0.9, where 1 is the maximum; inactive = score below 0.9.
Outcome (select one): label 1 (active), label 0 (inactive)

Query: Call for entry CC(O)CNCC(C)O (stereo not given) :
Result: label 0

Query: Call for entry NC(=O)c1cnccn1 :
Result: label 0

Query: Call for entry CC(C)Cc1ccccc1 :
Result: label 0

Query: Call for entry CCCCCCCC(=O)N(C)C :
Result: label 0

Query: Call for entry CCO[Si](CCC#N)(OCC)OCC :
Result: label 0

Query: Call for entry CC(O)COCC(C)O (stereo not given) :
Result: label 0

Query: Call for entry OCCN1CCOCC1 :
Result: label 0

Query: Call for entry CC(C)(O)C(=O)c1ccc(OCCO)cc1 :
Result: label 0

Query: Call for entry C=C(C)CCCC(C)CCO (stereo not given) :
Result: label 0

Query: Call for entry [Na+] :
Result: label 0

Query: Call for entry CCCc1ccc(O)cc1 :
Result: label 0

Query: Call for entry C=C1CC[C@H]2O[C@]2(C)CC[C@@H]2[C@@H]1CC2(C)C :
Result: label 0

Query: Call for entry CC12CCC(C1)C(C)(C)C2O (stereo not given) :
Result: label 0

Query: Call for entry O=c1cc[nH]cc1 :
Result: label 0

Query: Call for entry CC(=O)Nc1cc(S(=O)(=O)O)cc2cc(S(=O)(=O)O)c(N=Nc3ccccc3)c(O)c12 :
Result: label 0

Query: Call for entry O=C(c1ccc(OCCN2CCCCC2)cc1)c1c(-c2ccc(O)cc2)sc2cc(O)ccc12 :
Result: label 0

Query: Call for entry CC(=O)OC/C=C(C)/C=C/C=C(C)/C=C/C1=C(C)CCCC1(C)C :
Result: label 0

Query: Call for entry C=C(C)C(=O)OCCOCCOC(=O)C(=C)C :
Result: label 0

Query: Call for entry C=COCC1CCC(COC=C)CC1 (stereo not given) :
Result: label 0

Query: Call for entry CCC(=O)OC(C)(C)C1CC=C(C)CC1 (stereo not given) :
Result: label 0

Query: Call for entry CCCCCCC(O)CCOC(C)=O (stereo not given) :
Result: label 0

Query: Call for entry CC(C)COC(=O)c1ccccc1O :
Result: label 0

Query: Call for entry Cc1cc(O)c(C)c(C)c1O :
Result: label 0

Query: Call for entry C[C@H](CCC(=O)O)[C@H]1CC[C@H]2[C@@H]3CC[C@@H]4C[C@H](O)CC[C@]4(C)[C@H]3CC[C@]12C :
Result: label 0

Query: Call for entry Cc1ccc(C(C)(C)O)cc1 :
Result: label 0

Query: Call for entry Nc1ccc(N)c([N+](=O)[O-])c1 :
Result: label 0

Query: Call for entry CCCCOCCOC(=O)c1ccccc1C(=O)OCCOCCCC :
Result: label 0

Query: Call for entry Cc1ccccc1S :
Result: label 0

Query: Call for entry S=c1[nH][nH]c(=S)s1 :
Result: label 0

Query: Call for entry OC[C@@H](O)[C@H](O)[C@@H](O)[C@@H](O)CO :
Result: label 0

Query: Call for entry CCCCCCCCOS(=O)(=O)O :
Result: label 0

Query: Call for entry COC(=O)c1ccc(C(=O)OC)cc1 :
Result: label 0

Query: Call for entry CC(=O)C1C(=O)C=C(C)OC1=O (stereo not given) :
Result: label 0

Query: Call for entry C=CC(=O)OCC(CO)(COC(=O)C=C)COC(=O)C=C :
Result: label 1

Query: Call for entry CCCCCCCCSCc1cc(C)c(O)c(CSCCCCCCCC)c1 :
Result: label 0

Query: Call for entry c1ccc2c(c1)-c1ccc3ccc4cccc5cc-2c1c3c45 :
Result: label 0

Query: Call for entry CCC(C)(C)C1CCC(OC)CC1 (stereo not given) :
Result: label 0

Query: Call for entry COc1ccc(OC)cc1 :
Result: label 0

Query: Call for entry CC(C)Cc1ccc(C(C)C(=O)O)cc1 (stereo not given) :
Result: label 0

Query: Call for entry CCOC(=O)CC1(C)OCC(C)O1 (stereo not given) :
Result: label 0

Query: Call for entry N#CCCNCCC#N :
Result: label 0

Query: Call for entry CC1(C)[C@H](C=C(Cl)Cl)[C@H]1C(=O)OCc1cccc(Oc2ccccc2)c1 :
Result: label 0

Query: Call for entry C1CCCNCC1 :
Result: label 0

Query: Call for entry CC1=CCC(C(C)C)=CC1 :
Result: label 1

Query: Call for entry CN(C)CCC=C1c2ccccc2CCc2ccccc21 :
Result: label 0

Query: Call for entry NC(N)=S :
Result: label 0

Query: Call for entry CC(C)=CC(=O)O :
Result: label 0

Query: Call for entry O=S(=O)(O)c1cc(S(=O)(=O)O)c2c(N=Nc3ccccc3)c(O)ccc2c1 :
Result: label 0

Query: Call for entry CC(C)CCOC(=O)CC(C)C :
Result: label 0

Query: Call for entry CCCCCC#CC(=O)OC :
Result: label 0

Query: Call for entry O=S1(=O)CC=CC1 :
Result: label 0

Query: Call for entry CC(=O)N(C)C :
Result: label 0

Query: Call for entry C=C(C)C(N)=O :
Result: label 0

Query: Call for entry NC(N)=NC(N)=NCCc1ccccc1 :
Result: label 0

Query: Call for entry CCCO :
Result: label 0

Query: Call for entry CC1=CC(C)C(C=O)C(C)C1 (stereo not given) (tested in a mixture with another compound) :
Result: label 0

Query: Call for entry CC(C)=CCCC(C)=CC(=O)O :
Result: label 0

Query: Call for entry CC(=O)OC(C)(C)C1CC=C(C)CC1 (stereo not given) :
Result: label 0

Query: Call for entry CC(=O)Oc1c(C)c(C)c2c(c1C)CC[C@@](C)(CCC[C@H](C)CCC[C@H](C)CCCC(C)C)O2 :
Result: label 0

Query: Call for entry COc1ccc(C(C)=O)cc1 :
Result: label 0

---

Experiment: CEETOX_H295R_ESTRONE_noMTC: CeeTox H295R High-throughput Steroidogenesis Assay for Estrone, maximum tolerated concentration (MTC) filtered results only (AID 2283921)
Settings: actives raise or lower the signal
Active and inactive are the calls of the source. Rule for the calls: active = hit-call score of the fitted dose curve at least 0.9, where 1 is the maximum; inactive = score below 0.9.
Outcome (select one): active, inactive

Query: Call for entry COC(=O)c1cccc(C(=O)OC)c1 :
Result: inactive

Query: Call for entry CC(=O)OC/C=C(C)/C=C/C=C(C)/C=C/C1=C(C)CCCC1(C)C :
Result: inactive

Query: Call for entry COc1cc(OC)c2ccc(=O)oc2c1 :
Result: inactive

Query: Call for entry COC(=O)C(C)Oc1ccc(Oc2ncc(C(F)(F)F)cc2Cl)cc1 (centres undefined) :
Result: active

---

Assay: ATG_BRE_CIS: Attagene CIS-FACTORIAL HepG2 Assay for human Bone Morphogenetic Protein (BMP) Response Element (BRE) (AID 2282933)
Settings: HepG2 BMP response element reporter, Attagene transcription factor profiling; actives raise or lower the signal
The source made the active and inactive calls. How the source made its calls: active means hit-call score of the fitted dose curve at least 0.9, where 1 is the maximum; inactive means score below 0.9.
Outcome (select one): active, inactive

Query: Call for entry CCCCCCCCCCO[C@@H]1O[C@H](CO)[C@@H](O)[C@H](O)[C@H]1O :
Result: inactive

Query: Call for entry O=C1OC2(c3ccc(O)cc3Oc3cc(O)ccc32)c2ccccc21 :
Result: inactive

Query: Call for entry CCO[Si](CCC#N)(OCC)OCC :
Result: inactive

Query: Call for entry CC(=O)c1ccc2ccccc2c1 :
Result: inactive

Query: Call for entry C=CC(C)CCCC(C)(C)O (stereo unspecified) :
Result: inactive

Query: Call for entry C[C@H](CCC(=O)O)[C@H]1CC[C@H]2[C@@H]3CC[C@@H]4C[C@H](O)CC[C@]4(C)[C@H]3CC[C@]12C :
Result: active

Query: Call for entry c1ccc(OCCOc2ccccc2)cc1 :
Result: inactive

Query: Call for entry Cc1cccc(O)c1 :
Result: inactive

Query: Call for entry CCO[Si](CC)(OCC)OCC :
Result: inactive

Query: Call for entry CCOC(=O)C(=O)OCC :
Result: inactive

Query: Call for entry CCOC(=O)CC1(C)OCC(C)O1 (stereo unspecified) :
Result: inactive

Query: Call for entry CCCCCCOc1ccc(O)cc1 :
Result: inactive

Query: Call for entry CC(=O)CCC=C(C)CCC=C(C)C :
Result: inactive

Query: Call for entry CCCCCCCCCCCCCC(=O)OCC :
Result: inactive

Query: Call for entry COc1ccc2[nH]cc(CCNC(C)=O)c2c1 :
Result: inactive

Query: Call for entry C=CC(O)CCCCC (stereo unspecified) :
Result: inactive

Query: Call for entry O=C(O)C1=NN(c2ccc(S(=O)(=O)O)cc2)C(=O)C1 :
Result: inactive

Query: Call for entry CC(=O)CC(=O)N(C)C :
Result: inactive

Query: Call for entry CC12CCC(C1)C(C)(C)C2O (stereo unspecified) :
Result: inactive

Query: Call for entry c1ccc2scnc2c1 :
Result: inactive

Query: Call for entry CC(=O)CC(C)(C)C1CCCCC1 :
Result: inactive

Query: Call for entry C=C(C)CCCC(C)CCO (stereo unspecified) :
Result: inactive

Query: Call for entry CCCCCCCCSCc1cc(C)c(O)c(CSCCCCCCCC)c1 :
Result: inactive

Query: Call for entry CCC(C)(CCCC(C)C)OC(C)=O (stereo unspecified) :
Result: inactive

Query: Call for entry CN(C)C :
Result: inactive

Query: Call for entry [Cl][Dy]([Cl])[Cl] :
Result: inactive

Query: Call for entry C=C(C)C(=O)OCCN(C)C :
Result: inactive

Query: Call for entry c1ccc(Sc2ccccc2)cc1 :
Result: inactive

Query: Call for entry CC(C)=CC(=O)O :
Result: inactive

Query: Call for entry O=C(O)c1ccc(C(=O)O)c(C(=O)O)c1 :
Result: inactive

Query: Call for entry COC(=O)c1cccc(C(=O)OC)c1 :
Result: inactive
